The reported measurements were obtained from PubChem BioAssay.

System: Fibrinogen (Alexa647-labelled)
measurement-description: fibrinogen binders on compound microarrays, profiling panel, artefact control for SMM control-protein annotation, biochemical, small-molecule microarray, 635/667 nm fluorescence (AID 1131);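 also: z-score merges 667 nm fluorescence with per-spot signal-to-noise over triplicate slides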
details: fibrinogen-A647 binding fluorescence, higher = more signal
parameter-measured: composite z-score
Lab note: record the figure alone, no unit after it.

Answered cases to consult:
{"columns": ["substance-smiles", "assay-target", "parameter-measured", "result-number"],
 "data": [
  ["C=C[C@H](CO)NS(=O)(=O)c1ccc(Br)cc1", "Fibrinogen (Alexa647-labelled)", "composite z-score", 0.28],
  ["COc1ccc([Si](C)(C)[C@H]2[C@H](CCO)O[C@@]3(C(=O)N(Cc4ccc(N(C=O)c5ccccc5)cc4)c4ccccc43)[C@@H]2C)cc1", "Fibrinogen (Alexa647-labelled)", "composite z-score", -0.568],
  ["COC(=O)[C@@]1(Cc2ccc(OC)cc2)[C@H]2c3cc(C(=O)N(C)C)n(Cc4ccc(S(C)(=O)=O)cc4)c3C[C@H]2CN1C(=O)c1ccccc1", "Fibrinogen (Alexa647-labelled)", "composite z-score", 0.849]
]}

Then this compound:
Problem: Bench note: what composite z-score did C=CCNC(=O)[C@@H]1[C@H]2C(=O)O[C@H](c3ccccc3)[C@H](c3ccccc3)N2[C@H](c2ccc(O)cc2)[C@@]12C(=O)Nc1ccc(C#CCNC(N)=O)cc12 show?
Solution: -0.609
